# Target Or Test System: Tyrosine-protein kinase JAK1 (Homo sapiens, UniProt P23458)
# Sequence (P23458 whole entry, the tested form may be a part): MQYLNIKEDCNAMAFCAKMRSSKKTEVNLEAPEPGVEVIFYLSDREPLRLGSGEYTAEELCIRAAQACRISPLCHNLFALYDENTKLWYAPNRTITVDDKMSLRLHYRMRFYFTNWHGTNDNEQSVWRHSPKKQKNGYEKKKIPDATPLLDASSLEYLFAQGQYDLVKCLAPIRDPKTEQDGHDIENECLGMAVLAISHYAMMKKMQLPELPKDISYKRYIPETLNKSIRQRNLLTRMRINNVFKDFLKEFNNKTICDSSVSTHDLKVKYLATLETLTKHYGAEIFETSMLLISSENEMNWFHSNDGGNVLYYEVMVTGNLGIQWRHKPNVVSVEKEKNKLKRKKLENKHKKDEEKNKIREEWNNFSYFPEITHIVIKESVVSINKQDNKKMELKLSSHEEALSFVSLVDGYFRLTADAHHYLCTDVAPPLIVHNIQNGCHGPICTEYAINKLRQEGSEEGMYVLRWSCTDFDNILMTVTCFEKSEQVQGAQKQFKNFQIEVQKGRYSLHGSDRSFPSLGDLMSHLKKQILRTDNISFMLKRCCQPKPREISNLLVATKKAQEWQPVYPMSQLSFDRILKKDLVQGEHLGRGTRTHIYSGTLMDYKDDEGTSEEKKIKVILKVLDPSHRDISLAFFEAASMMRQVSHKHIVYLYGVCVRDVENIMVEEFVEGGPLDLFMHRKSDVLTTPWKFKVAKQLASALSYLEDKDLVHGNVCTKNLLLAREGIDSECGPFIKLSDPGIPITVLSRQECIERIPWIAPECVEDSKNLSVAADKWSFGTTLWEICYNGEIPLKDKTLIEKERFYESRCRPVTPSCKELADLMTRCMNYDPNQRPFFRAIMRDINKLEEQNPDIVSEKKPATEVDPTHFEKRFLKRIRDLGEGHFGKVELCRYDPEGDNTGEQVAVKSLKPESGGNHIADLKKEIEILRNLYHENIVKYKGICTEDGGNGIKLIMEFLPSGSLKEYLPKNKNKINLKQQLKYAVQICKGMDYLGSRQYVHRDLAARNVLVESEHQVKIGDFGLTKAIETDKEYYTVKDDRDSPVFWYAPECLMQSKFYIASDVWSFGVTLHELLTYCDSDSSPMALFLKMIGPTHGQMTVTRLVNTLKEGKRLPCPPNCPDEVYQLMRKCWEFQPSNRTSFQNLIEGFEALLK
# Test: Inhibition of recombinant human N-terminal GST-tagged JAK1 catalytic domain (850 to 1154 residues) expressed in baculovirus expression system using Biotin-Lyn-Substrate2 after 1 hr by ELISA
Readout: pIC50
To interpret pIC50, take it as minus log10 of a concentration measured in moles per litre.

Study these solved cases before continuing.
1) COC12CC3CC(C1)C(Nc1c(C(N)=O)cnc4[nH]ccc14)C(C3)C2 (stereo not given)    8.11
2) NC(=O)c1cnc2[nH]ccc2c1N[C@@H]1C[C@H]2CC[C@@H]1C2 (racemic)    7.62
3) NC(=O)c1cnc2[nH]ccc2c1NC1C2CC3CC1CC(F)(C3)C2 (stereo not given)    7.72
4) NC(=O)c1cnc2[nH]ccc2c1NC1C2CC3CC(C2)CC1C3 (stereo not given)    7.92

Continue with the next compound.
State the recorded pIC50 for this entry: NC(=O)c1cnc2[nH]ccc2c1NC12CC3CC(CC(C3)C1)C2
6.96
